experimentalTarget: Secreted aspartic protease 2 (Candida albicans) (UniProt P0CS83)
Sequence (P0CS83 57-398 limits assumed): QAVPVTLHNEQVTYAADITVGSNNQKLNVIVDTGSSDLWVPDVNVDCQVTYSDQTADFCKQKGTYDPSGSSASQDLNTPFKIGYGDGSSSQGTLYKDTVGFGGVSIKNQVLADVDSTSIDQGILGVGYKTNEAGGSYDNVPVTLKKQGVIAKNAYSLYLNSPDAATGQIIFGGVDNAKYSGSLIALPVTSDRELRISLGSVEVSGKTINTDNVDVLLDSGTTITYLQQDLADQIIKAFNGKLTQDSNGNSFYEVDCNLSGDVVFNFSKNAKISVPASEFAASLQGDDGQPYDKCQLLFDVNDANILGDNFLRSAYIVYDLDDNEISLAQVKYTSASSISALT
experimentSummary: Inhibition of Candida albicans SAP2 at 10 uM by spectrophotometry relative to pepstatin A
Reported values of inhibition for individual entries
Give just the numeric value; % need not be written.

Here are 3 compounds together with their reported answers.
| compound | inhibition / % |
| --- | --- |
| COC(=O)[C@H](CC(C)C)N1C[C@@]2(C)O[C@H](C(=O)N3CCN(Cc4ccccc4)CC3)[C@H](O2)C1=O | 57 |
| CN(CCN)C(=O)[C@@H]1O[C@@H]2O[C@H]1C(=O)N(Cc1ccccc1)[C@H]2Cc1ccccc1 | 87 |
| CNC(=O)[C@@H]1O[C@@H]2O[C@H]1C(=O)N(Cc1ccccc1)[C@H]2Cc1ccccc1 | 87 |

Problem: Any idea what its inhibition is? The compound is CN(CCN)C(=O)[C@@H]1O[C@@]2(c3ccccc3)CN(C(c3ccccc3)c3ccccc3)C[C@@H]1O2
Result: 23

Problem: Any idea what its inhibition is? The compound is CCOC(=O)N1CCN(C(=O)[C@@H]2O[C@H]3CN(Cc4ccccc4)C(=O)[C@@H]2O3)CC1
Result: 19

Problem: Any idea what its inhibition is? The compound is CCCCCNC(=O)[C@@H]1O[C@@]2(c3ccccc3)CN(C(c3ccccc3)c3ccccc3)C(=O)[C@@H]1O2
Result: 0

Problem: Any idea what its inhibition is? The compound is O=C([C@@H]1O[C@@H]2O[C@H]1C(=O)N(Cc1ccccc1)[C@H]2Cc1ccccc1)N1CCOCC1
Result: 40

Problem: Any idea what its inhibition is? The compound is O=C(NC1CCCCC1)[C@@H]1O[C@@]2(c3ccccc3)CN(C(c3ccccc3)c3ccccc3)C(=O)[C@@H]1O2
Result: 0

---

experimentalTarget: Secreted aspartic protease 2 (Candida albicans) (UniProt P0CS83)
experimentSummary: Inhibition of Candida albicans SAP2 at 10 uM by spectrophotometry
Reported values of inhibition for individual entries
Give just the numeric value; % need not be written.

Here are 2 compounds together with their reported answers.
| compound | measuredParameter | unitInfo | observedResult |
| --- | --- | --- | --- |
| O=C(NCC(F)(F)F)[C@@H]1O[C@H]2CN(Cc3ccccc3)C(=O)[C@@H]1O2 | inhibition | % | 22 |
| O=C(NC1CC1)[C@@H]1O[C@@H]2O[C@H]1C(=O)N(Cc1ccccc1)[C@H]2Cc1ccccc1 | inhibition | % | 29 |

Continue with the next compound.
Problem: Any idea what its inhibition is? The compound is CC(NC(=O)[C@@H]1O[C@@H]2O[C@H]1C(=O)N(Cc1ccccc1)[C@H]2Cc1ccccc1)c1ccccc1 (stereo partly drawn)
Result: 8

---

Reported values of inhibition for individual entries
experimentalTarget: Secreted aspartic protease 2 (Candida albicans)
experimentSummary: Inhibition of Candida albicans SAP2 at 10 uM by spectrophotometry
Give just the numeric value; % need not be written.

Here are 4 compounds together with their reported answers.
| chemicalStructure | experimentalTarget | unitInfo | observedResult |
| --- | --- | --- | --- |
| CCOC(=O)C1CCN(C(=O)[C@@H]2O[C@@]3(c4ccccc4)CN(C(c4ccccc4)c4ccccc4)C[C@@H]2O3)CC1 | Secreted aspartic protease 2 (Candida albicans) | % | 6 |
| CC(C)CCNC(=O)[C@@H]1O[C@@H]2O[C@H]1C(=O)N(Cc1ccccc1)[C@H]2Cc1ccccc1 | Secreted aspartic protease 2 (Candida albicans) | % | 29 |
| O=C([C@@H]1O[C@H]2CN(Cc3ccccc3)C[C@@H]1O2)N1CCOCC1 | Secreted aspartic protease 2 (Candida albicans) | % | 2 |
| O=C([C@@H]1O[C@H]2CN(Cc3ccccc3)C(=O)[C@@H]1O2)N1CCOCC1 | Secreted aspartic protease 2 (Candida albicans) | % | 31 |

Continue with the next compound.
Problem: Form: Entry = CC(C)CCNC(=O)[C@@H]1O[C@H]2CN(Cc3ccccc3)C[C@@H]1O2 | System = Secreted aspartic protease 2 (Candida albicans) | inhibition = ____
Result: 3

Hey, just so you know, these numbers are from ChEMBL document CHEMBL1157639.
